# TARGET_OF_ASSAY: T1, purified interference factor(s), Donor B
# T1 construct: also called interference in serum from Donor B
# ASSAY: SPR, interference factor immobilized
TEST_READOUT: % of binding of reference (=100%)
Supply the numeric figure in %, leaving out any unit text.

response.value for SEQ ID NO: 87 (VHH, Ex. 8) VHH: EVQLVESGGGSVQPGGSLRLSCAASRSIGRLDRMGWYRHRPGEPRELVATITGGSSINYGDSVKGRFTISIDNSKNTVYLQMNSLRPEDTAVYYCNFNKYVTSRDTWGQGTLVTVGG (field: % of binding of reference (=100%)) = 5

response.value for SEQ ID NO: 89 (VHH, Ex. 8) VHH: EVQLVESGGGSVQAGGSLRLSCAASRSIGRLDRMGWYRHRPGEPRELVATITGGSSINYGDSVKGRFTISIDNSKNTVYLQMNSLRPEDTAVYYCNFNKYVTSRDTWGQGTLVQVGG (field: % of binding of reference (=100%)) = 5

response.value for SEQ ID NO: 73 (VHH, Ex. 8; S112G, S113G) VHH: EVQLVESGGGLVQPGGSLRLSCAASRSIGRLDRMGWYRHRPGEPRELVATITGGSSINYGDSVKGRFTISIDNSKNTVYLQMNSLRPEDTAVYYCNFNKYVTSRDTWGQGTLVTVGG (field: % of binding of reference (=100%)) = 8

response.value for SEQ ID NO: 81 (VHH, Ex. 8) VHH: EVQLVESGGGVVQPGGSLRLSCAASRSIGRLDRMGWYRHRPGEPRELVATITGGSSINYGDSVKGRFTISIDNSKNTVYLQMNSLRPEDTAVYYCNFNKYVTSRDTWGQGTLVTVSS (field: % of binding of reference (=100%)) = 50

response.value for SEQ ID NO: 71 (VHH, Ex. 8) VHH: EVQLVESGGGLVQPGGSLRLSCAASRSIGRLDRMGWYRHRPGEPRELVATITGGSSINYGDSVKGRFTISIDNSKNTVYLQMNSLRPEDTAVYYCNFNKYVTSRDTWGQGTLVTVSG (field: % of binding of reference (=100%)) = 105

response.value for SEQ ID NO: 74 (VHH, Ex. 8) VHH: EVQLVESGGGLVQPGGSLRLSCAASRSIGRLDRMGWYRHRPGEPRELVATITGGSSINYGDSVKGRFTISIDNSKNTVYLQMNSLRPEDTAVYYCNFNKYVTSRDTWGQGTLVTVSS (field: % of binding of reference (=100%)) = 41

response.value for SEQ ID NO: 67 (VHH, Ex. 8) VHH: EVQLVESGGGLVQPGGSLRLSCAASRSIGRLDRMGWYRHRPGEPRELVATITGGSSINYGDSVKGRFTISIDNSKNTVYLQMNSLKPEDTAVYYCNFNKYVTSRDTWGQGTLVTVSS (field: % of binding of reference (=100%)) = 117
